- Assayed target: OX1 (Homo sapiens)
- Construct: expressed in transfected cells; host or cells: CHO (CHO-OX1, kept under selection antibiotic)
- Sequence (O43613 1-425): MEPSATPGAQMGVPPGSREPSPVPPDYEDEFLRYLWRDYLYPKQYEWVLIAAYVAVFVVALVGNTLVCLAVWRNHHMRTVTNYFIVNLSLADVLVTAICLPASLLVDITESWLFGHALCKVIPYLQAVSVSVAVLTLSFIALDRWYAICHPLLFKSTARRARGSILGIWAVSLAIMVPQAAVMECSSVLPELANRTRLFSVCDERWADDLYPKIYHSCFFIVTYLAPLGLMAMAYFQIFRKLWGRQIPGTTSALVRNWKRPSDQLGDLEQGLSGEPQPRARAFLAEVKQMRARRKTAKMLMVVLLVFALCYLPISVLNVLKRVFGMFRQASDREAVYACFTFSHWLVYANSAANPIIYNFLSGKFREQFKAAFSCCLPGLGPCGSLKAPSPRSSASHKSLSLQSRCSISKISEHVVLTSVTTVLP
- Protocol notes: Orexin receptor cell-based functional assay, [Ca2+]i by FLIPR, CHO-OX1 cells
- Condition details: CHO-OX1 cells, [Ca2+]i by FLIPR, antagonist dose-range 0.1 nM-10 μM, EC90 of OXA; read-out: OX1
pIC50: −log10 of the molar value.
Property measured: pIC50

Cc1ccc(-c2cnn(C)c2)c(C(=O)N2CC3CCCC3C2CNc2ccc(C(F)(F)F)cn2)c1 (centres unmarked) [Example A71] | 7.15
Cc1ccc(-c2cnccc2C)c(C(=O)N2CCC[C@@H](C)[C@H]2CNc2ccc(C(F)(F)F)cn2)c1 [Example A8] | 7.24
C[C@@H]1CCCN(C(=O)c2cccc(F)c2-n2nccn2)[C@@H]1CNc1ncc(Cl)cn1 [Example A255] | 7.39
C[C@@H]1CCCN(C(=O)c2nccc3ccccc23)[C@@H]1CNc1ncc(Cl)cn1 [Example A225] | 6.47
Cc1ccc(C(=O)N2CCC[C@@H](C)[C@H]2CNc2ncc(C(F)(F)F)cn2)c(-c2ncccn2)c1 [Example A340] | 8.70
Cc1cccc(-n2nccn2)c1C(=O)N1CCC[C@@H](C)[C@H]1CNc1ccc(C(F)(F)F)cn1 [Example A265] | 8.10
Cc1c(F)ccc(-n2nccn2)c1C(=O)N1CCC[C@@H](C)[C@H]1CNc1ncc(C(F)(F)F)cn1 [Example A385] | 7.62
C[C@@H]1CCCN(C(=O)c2c(-c3ncccn3)ccc(F)c2F)[C@@H]1CNc1ncc(C(F)(F)F)cn1 [Example A389] | 8.30
Cc1ccc(-c2ccnn2C)c(C(=O)N2CCC[C@@H](C)[C@H]2CNc2ccc(F)cn2)c1 [Example A61] | 5.96
Cc1ccc(-n2ncc(C)n2)c(C(=O)N2CCC[C@@H](C)[C@H]2CNc2ccc(F)cn2)c1 [Example A142] | 7.29
C[C@@H]1CCCN(C(=O)c2cc(C#N)ccc2-n2nccn2)[C@@H]1CNc1ncc(C(F)(F)F)cn1 [Example A322] | 7.96
Cc1ccc(-c2ccccn2)c(C(=O)N2CCC[C@@H](C)[C@H]2CNc2ncc(C(F)(F)F)cn2)n1 [Example A167] | 8.30
Cc1ccc(-n2nccn2)c(C(=O)N2CCC[C@@H](C)[C@H]2CN(C)c2ccc(C(F)(F)F)cn2)n1 [Example A194] | 8.22
Cc1ccc(-n2nccn2)c(C(=O)N2CCC[C@@H](C)[C@H]2CNc2cccc(C)n2)c1 [Example A79] | 6.51

* * *

- Assayed target: OX1 (Homo sapiens, UniProt O43613)
- Construct: expressed in transfected cells; host or cells: CHO (CHO-OX1, kept under selection antibiotic)
- Protocol notes: Orexin receptor cell-based functional assay, [Ca2+]i by FLIPR, CHO-OX1 cells
- Condition details: CHO-OX1 cells, [Ca2+]i by FLIPR, antagonist dose-range 0.1 nM-10 μM, EC90 of OXA; read-out: OX1
pIC50: −log10 of the molar value.
Short version: pIC50 at least 7 is 1, less is 0.

Cc1ccc(-c2ncccn2)c(C(=O)N2CCC[C@@H](C)[C@H]2CNc2nnc(C(F)(F)F)s2)n1 | 0
Cc1cc(F)c(-n2nccn2)c(C(=O)N2CCC[C@@H](C)[C@H]2CNc2ncc(C(F)(F)F)cn2)c1 | 1
Cc1ccc(-n2nccn2)c(C(=O)N2CCC[C@@H](C)[C@H]2CNc2ccc(C3(C#N)CC3)cn2)c1 | 1
C[C@@H]1CCCN(C(=O)c2c(F)ccc(F)c2-c2ncccn2)[C@@H]1CNc1ncc(C(F)(F)F)cn1 | 1
Cc1ccc(-c2cccnc2)c(C(=O)N2CCC[C@@H](C)[C@H]2CNc2ncc(C(F)(F)F)cn2)n1 | 1
Cc1ccc(NC[C@@H]2[C@H](C)CCCN2C(=O)c2cc(C)ccc2-c2ncccn2)nc1 | 1

* * *

- Assayed target: OX1 (Homo sapiens)
- Construct: expressed in transfected cells; host or cells: CHO (CHO-OX1, kept under selection antibiotic)
- Protocol notes: Orexin receptor cell-based functional assay, [Ca2+]i by FLIPR, CHO-OX1 cells
- Condition details: CHO-OX1 cells, [Ca2+]i by FLIPR, antagonist dose-range 0.1 nM-10 μM, EC90 of OXA; read-out: OX1
pIC50: −log10 of the molar value.
The entries below are paired with their reported pIC50.
Property measured: pIC50

Cc1cc(F)c(-c2ncccn2)c(C(=O)N2CCC[C@@H](C)[C@H]2CNc2ncc(C(F)(F)F)cn2)c1 | 8.10
C[C@@H]1CCCN(C(=O)c2cc(Cl)ccc2-n2nccn2)[C@@H]1CNc1ncc(C(F)(F)F)cn1 | 9.00
Cc1ccc(-c2ccccn2)c(C(=O)N2CCC[C@@H](C)[C@H]2CNc2ccc(Cl)cn2)n1 | 8.10
Cc1c(F)ccc(-n2nccn2)c1C(=O)N1CCC[C@@H](C)[C@H]1CNc1ccc(C(F)(F)F)cn1 | 7.72
C[C@@H]1CCCN(C(=O)c2cc(C#N)ccc2-c2ncccn2)[C@@H]1CNc1ncc(C(F)(F)F)cn1 | 8.00
Cc1ccc(-c2ccn(C)c2)c(C(=O)N2CCC[C@@H](C)[C@H]2CNc2ccc(C(F)(F)F)cn2)c1 | 7.89
Cc1ccc(-n2ncc(C)n2)c(C(=O)N2CCC[C@@H](C)[C@H]2CNc2ccc(C(F)(F)F)nn2)c1 | 7.60
Cc1ccc(-c2ncccn2)c(C(=O)N2CCC[C@@H](C)[C@H]2CNc2ncc(Cl)cc2F)c1 | 8.40
Cc1ccc(-n2ncc(C)n2)c(C(=O)N2CCC[C@@H](C)[C@H]2CNc2nnc(C(F)(F)F)s2)c1 | 7.68

* * *

- Assayed target: CYP3A4 (Homo sapiens)
- Construct: pre-incubated with human liver microsomes and NADPH; from tissue; host or cells: human liver microsomes
- Sequence (P08684 whole entry): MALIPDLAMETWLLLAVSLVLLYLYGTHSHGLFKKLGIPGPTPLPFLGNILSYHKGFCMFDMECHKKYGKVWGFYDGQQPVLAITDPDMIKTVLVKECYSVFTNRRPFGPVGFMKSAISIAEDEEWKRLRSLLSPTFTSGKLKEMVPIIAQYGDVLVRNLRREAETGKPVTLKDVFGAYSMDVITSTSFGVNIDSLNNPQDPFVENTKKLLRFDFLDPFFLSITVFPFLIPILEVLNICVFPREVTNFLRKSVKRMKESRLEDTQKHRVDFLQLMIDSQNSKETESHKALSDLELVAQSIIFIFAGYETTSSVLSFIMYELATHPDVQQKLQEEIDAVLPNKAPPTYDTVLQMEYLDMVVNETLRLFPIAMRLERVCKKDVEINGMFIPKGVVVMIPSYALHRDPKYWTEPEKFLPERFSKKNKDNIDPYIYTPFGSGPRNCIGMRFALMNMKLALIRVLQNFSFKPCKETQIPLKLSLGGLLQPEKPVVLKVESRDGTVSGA
- Protocol notes: Cytochrome P450 inhibition assay (midazolam hydroxylation)
- Assay type: in vitro ADME
- Condition details: human, human liver microsomes, probe midazolam (hydroxylation to 1′-hydroxymidazolam), 10 μM test compound, midazolam at approximately its Km
Property measured: inhibition at 10 µM (%)

Cc1ccc(-c2ccccn2)c(C(=O)N2CCC[C@@H](C)[C@H]2CNc2ncc(C(F)(F)F)cn2)c1 | 86
Cc1ccc(-c2cncs2)c(C(=O)N2CCC[C@@H](C)[C@H]2CNc2nc3cc(Cl)ccc3o2)c1 | 99
Cc1ccc(-n2ncc(C)n2)c(C(=O)N2CCC[C@@H](C)[C@H]2CNc2ccc(C(F)(F)F)cn2)c1 | 84
C[C@@H]1CCCN(C(=O)c2cc(F)c(F)cc2-n2nccn2)[C@@H]1CNc1ncc(C(F)(F)F)cn1 | 67
C[C@@H]1CCCN(C(=O)c2cccc(F)c2-n2nccn2)[C@@H]1CNc1ncc(Cl)cn1 | 41
Cc1ccc(-c2cnn(C)c2)c(C(=O)N2CCC[C@@H](C)[C@H]2CNc2nc3ccccc3o2)c1 | 93
Cc1ccc(-c2ccccn2)c(C(=O)N2CCC[C@@H](C)[C@H]2CNc2nc3cc(Cl)ccc3o2)n1 | 62
Cc1ccc(-c2ncccn2)c(C(=O)N2CCC[C@@H](C)[C@H]2CNc2ccc(C(F)(F)F)nn2)n1 | 33
Cc1ccc(-n2nccn2)c(C(=O)N2CCC[C@@H](C)[C@H]2CNc2cccc(C)n2)c1 | 5
C[C@@H]1CCCN(C(=O)c2cc(F)ccc2-n2nccn2)[C@@H]1CNc1ccc(C(F)(F)F)nn1 | 59
Cc1ccc(-c2ccccn2)c(C(=O)N2CCC[C@@H](C)[C@H]2CNc2ncc(F)cn2)c1 | 67
Cc1ccc(-n2ccc(C)n2)c(C(=O)N2CCC[C@@H](C)[C@H]2CNc2ccc(C(F)(F)F)cn2)c1 | 88
Cc1ccc(-n2nccn2)c(C(=O)N2CCC[C@@H](C)[C@H]2CNc2ncc3cc(Br)ccc3n2)c1 | 72
Cc1ccc(-n2ncc(C)n2)c(C(=O)N2CCC[C@@H](C)[C@H]2CNc2ccc(F)cn2)c1 | 74
Cc1ccc(-n2nccn2)c(C(=O)N2CCC[C@@H](C)[C@H]2CNc2ncc(C(F)(F)F)cn2)n1 | 33
Cc1nc(C(=O)N2CCC[C@H](C)[C@@H]2CNc2ccc(C(F)(F)F)cn2)c(-c2ccc(F)cc2)s1 | 55
C[C@@H]1CCCN(C(=O)c2c(F)cccc2-c2ncccn2)[C@@H]1CNc1ccc(C(F)(F)F)cn1 | 62
C[C@@H]1CCCN(C(=O)c2cc(F)c(F)cc2-c2ncccn2)[C@@H]1CNc1ncc(C(F)(F)F)cn1 | 68
Cc1ccc(-n2nccn2)c(C(=O)N2CCC[C@@H](C)[C@H]2CNc2ncc(Cl)cc2F)c1 | 81
Cc1ccc(-n2nccn2)c(C(=O)N2CCC[C@@H](C)[C@H]2CNc2ncc(C#N)cc2F)n1 | 45
Cc1ccc(-n2nccn2)c(C(=O)N2CCC[C@@H](C)[C@H]2CNc2ccc(C#N)cn2)c1 | 57
Cc1ccc(-c2ccc(F)cn2)c(C(=O)N2CCC[C@@H](C)[C@H]2CNc2ccc(Cl)cn2)c1 | 88
C[C@@H]1CCCN(C(=O)c2cccc(F)c2-c2ncccn2)[C@@H]1CNc1ncc(Cl)cn1 | 54
Cc1ccc(-c2cccc(C)n2)c(C(=O)N2CCC[C@@H](C)[C@H]2CNc2ccc(C(F)(F)F)cn2)c1 | 91
Cc1ccc(-c2cnn(C)c2)c(C(=O)N2CCC[C@@H](C)[C@H]2CNc2ncc(Cl)cc2F)c1 | 98
Cc1ccc(-n2nccn2)c(C(=O)N2CCC[C@@H](C)[C@H]2CNc2ncc3ccc(C)cc3n2)c1 | 67
Cc1ccc(-c2cnccc2C)c(C(=O)N2CCC[C@@H](C)[C@H]2CNc2ccc(C(F)(F)F)cn2)c1 | 99
